Ref: patent US20020103111A1

- TARGET_OR_SYSTEM: human MAdCAM-1 (huMAdCAM-1-Ig chimera); RPMI 8866 cells expressing α4β7 (Homo sapiens, UniProt P13612+P26010)
- Construct: RPMI 8866 cells, a B cell lymphoma expressing α4β7; endogenous in cells; host or cells: RPMI 8866 cells (endogenous α4β7)
- Sequence (P13612 34-1032, change not shown): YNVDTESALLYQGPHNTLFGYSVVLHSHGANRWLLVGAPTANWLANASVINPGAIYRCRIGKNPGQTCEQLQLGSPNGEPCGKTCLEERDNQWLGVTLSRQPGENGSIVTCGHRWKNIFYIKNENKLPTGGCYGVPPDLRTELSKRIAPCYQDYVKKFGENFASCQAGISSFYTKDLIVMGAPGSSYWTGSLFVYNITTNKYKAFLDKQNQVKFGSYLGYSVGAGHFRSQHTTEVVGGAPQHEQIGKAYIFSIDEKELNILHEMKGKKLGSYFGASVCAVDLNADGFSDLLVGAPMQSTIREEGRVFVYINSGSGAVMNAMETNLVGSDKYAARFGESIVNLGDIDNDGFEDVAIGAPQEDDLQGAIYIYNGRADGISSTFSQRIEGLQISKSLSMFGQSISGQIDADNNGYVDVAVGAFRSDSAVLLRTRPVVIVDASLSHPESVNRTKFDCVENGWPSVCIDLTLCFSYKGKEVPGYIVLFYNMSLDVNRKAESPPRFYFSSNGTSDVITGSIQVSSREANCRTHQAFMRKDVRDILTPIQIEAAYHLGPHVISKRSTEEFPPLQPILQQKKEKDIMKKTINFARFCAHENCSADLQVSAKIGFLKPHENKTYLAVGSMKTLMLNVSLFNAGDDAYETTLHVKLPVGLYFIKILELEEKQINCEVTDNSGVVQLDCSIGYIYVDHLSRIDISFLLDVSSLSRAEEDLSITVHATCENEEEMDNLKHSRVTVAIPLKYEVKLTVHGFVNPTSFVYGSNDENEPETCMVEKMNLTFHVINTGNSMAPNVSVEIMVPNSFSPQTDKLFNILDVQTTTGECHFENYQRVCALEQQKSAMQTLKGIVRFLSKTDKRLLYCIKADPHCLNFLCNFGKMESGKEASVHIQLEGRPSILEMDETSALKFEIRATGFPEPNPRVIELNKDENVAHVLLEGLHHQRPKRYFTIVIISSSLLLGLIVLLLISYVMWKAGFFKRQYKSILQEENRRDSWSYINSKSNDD
- Sequence (P26010 20-798, change not shown): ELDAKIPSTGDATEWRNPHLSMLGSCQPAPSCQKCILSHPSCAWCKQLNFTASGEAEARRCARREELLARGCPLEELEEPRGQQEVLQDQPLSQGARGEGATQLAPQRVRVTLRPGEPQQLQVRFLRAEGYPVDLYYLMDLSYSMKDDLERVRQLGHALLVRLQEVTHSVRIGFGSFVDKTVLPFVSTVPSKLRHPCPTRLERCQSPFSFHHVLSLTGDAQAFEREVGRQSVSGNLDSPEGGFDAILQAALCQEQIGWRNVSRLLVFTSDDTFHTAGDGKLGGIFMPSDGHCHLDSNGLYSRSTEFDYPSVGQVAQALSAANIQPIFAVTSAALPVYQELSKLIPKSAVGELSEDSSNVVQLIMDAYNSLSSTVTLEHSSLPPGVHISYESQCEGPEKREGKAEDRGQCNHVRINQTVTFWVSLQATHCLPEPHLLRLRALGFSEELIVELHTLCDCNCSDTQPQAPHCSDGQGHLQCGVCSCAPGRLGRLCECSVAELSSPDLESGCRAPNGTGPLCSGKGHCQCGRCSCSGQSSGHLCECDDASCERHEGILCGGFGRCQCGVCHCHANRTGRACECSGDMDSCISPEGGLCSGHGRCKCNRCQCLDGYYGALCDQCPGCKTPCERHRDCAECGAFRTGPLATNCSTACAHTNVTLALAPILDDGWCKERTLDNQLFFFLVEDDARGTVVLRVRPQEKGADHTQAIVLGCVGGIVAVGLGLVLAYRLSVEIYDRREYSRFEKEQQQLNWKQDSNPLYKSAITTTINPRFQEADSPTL
- ASSAY_NOTES: huMAdCAM-1-Ig/RPMI 8866 Adhesion Assay
- Format: cell-based
- SETUP_CONDITIONS: Table 6, R1-Leu-Asp-Thr, read-out: hMAdCAM IC50
pIC50: −log10 of the molar value.

{"COMPOUND_STRUCTURE_STRING": "CC(C)C[C@H](NC(=O)c1cccc(Cl)c1)C(=O)N[C@@H](CC(=O)O)C(=O)N[C@H](C(N)=O)[C@@H](C)O", "pIC50": 5.85}
{"COMPOUND_STRUCTURE_STRING": "CC(C)C[C@H](NC(=O)c1cccc(F)c1F)C(=O)N[C@@H](CC(=O)O)C(=O)N[C@H](C(N)=O)[C@@H](C)O", "pIC50": 5.70}
{"COMPOUND_STRUCTURE_STRING": "CCCCCCOc1ccc(C(=O)N[C@@H](CC(C)C)C(=O)N[C@@H](CC(=O)O)C(=O)N[C@H](C(N)=O)[C@@H](C)O)cc1", "pIC50": 6.24}
